Data origin, for the record: the supplement of paper PMC8253809

Tested on: HGGX39 (paediatric high-grade glioma line)
Assay: maximal growth inhibition (yFin) relative to DMSO / staurosporine; higher = more efficacious
Please enter Met where maximal growth inhibition is greater than or equal to 70%, and Not met where it is lower.

Example entries begin here.
Challenge: Does `CC[C@@]1(O)C(=O)OCc2c1cc1n(c2=O)Cc2cc3c(CN(C)C)c(O)ccc3nc2-1` have a reported maximal growth inhibition of at least 70%?
Response given: Met

Challenge: Does COc1ccc(C[C@H](NC(=O)[C@H](C)NC(=O)CN2CCOCC2)C(=O)N[C@@H](Cc2ccccc2)C(=O)C2(C)CO2)cc1 (stereo in doubt) have a reported maximal growth inhibition of at least 70%?
Response given: Met

Challenge: Does `CS(=O)(=O)c1ccc([C@@H](O)[C@@H](CO)NC(=O)C(Cl)Cl)cc1` have a reported maximal growth inhibition of at least 70%?
Response given: Not met

Next:
Challenge: Does `C=CC(=O)N1CCC[C@@H](n2nc(-c3ccc(Oc4ccccc4)cc3)c3c(N)ncnc32)C1` have a reported maximal growth inhibition of at least 70%?
Response given: Not met

Challenge: Does Clc1ccc(COC(Cn2ccnc2)c2ccc(Cl)cc2Cl)c(Cl)c1 (centres undefined) have a reported maximal growth inhibition of at least 70%?
Response given: Not met

Challenge: Does `CC[C@@H](C(=O)[C@@H](C)[C@@H](O)[C@H](C)[C@@H]1O[C@@H]([C@@H](CC)C(=O)O)CC[C@@H]1C)[C@H]1O[C@]2(C=C[C@@H](O)[C@]3(CC[C@@](C)([C@H]4CC[C@](O)(CC)[C@H](C)O4)O3)O2)[C@H](C)C[C@@H]1C` have a reported maximal growth inhibition of at least 70%?
Response given: Met

Challenge: Does `COC1=CC(c2cc3ccccc3[nH]2)=N/C1=C\c1[nH]c(C)cc1C` have a reported maximal growth inhibition of at least 70%?
Response given: Met

Challenge: Does `CCCCOc1cc(C(=O)OCCN(CC)CC)ccc1N` have a reported maximal growth inhibition of at least 70%?
Response given: Not met

Challenge: Does CC1=C(C(=O)OC(C)C)C(c2cccc([N+](=O)[O-])c2)C(C(=O)OC2CN(C(c3ccccc3)c3ccccc3)C2)=C(N)N1 (centres undefined) have a reported maximal growth inhibition of at least 70%?
Response given: Met

Challenge: Does Cc1cccc(CN2CCN(C(c3ccccc3)c3ccc(Cl)cc3)CC2)c1 (centres undefined) have a reported maximal growth inhibition of at least 70%?
Response given: Not met

Challenge: Does `CS(=O)(=O)CCNCc1ccc(-c2ccc3ncnc(Nc4ccc(OCc5cccc(F)c5)c(Cl)c4)c3c2)o1` have a reported maximal growth inhibition of at least 70%?
Response given: Met

====

Tested on: SUDIPGIV (diffuse intrinsic pontine glioma line)
Test: maximal growth inhibition (yFin) relative to DMSO / staurosporine; higher = more efficacious
Please enter Criterion met where maximal growth inhibition is greater than or equal to 60%, and Criterion not met where it is lower.

Challenge: Does CCN1CCN(Cc2ccc(Nc3ncc(F)c(-c4cc(F)c5nc(C)n(C(C)C)c5c4)n3)nc2)CC1 [ABEMACICLIB] have a reported maximal growth inhibition of at least 60%?
Response given: Criterion met

Challenge: Does `CC(C)(C)c1cnc(CSc2cnc(NC(=O)C3CCNCC3)s2)o1` have a reported maximal growth inhibition of at least 60%?
Response given: Criterion met

Challenge: Does C=CCn1c(=O)c2cnc(Nc3ccc(N4CCN(C)CC4)cc3)nc2n1-c1cccc(C(C)(C)O)n1 [MK-1775] have a reported maximal growth inhibition of at least 60%?
Response given: Criterion not met

Challenge: Does CCNC(=O)c1noc(-c2cc(C(C)C)c(O)cc2O)c1-c1ccc(CN2CCOCC2)cc1 [NVP-AUY922] have a reported maximal growth inhibition of at least 60%?
Response given: Criterion not met

Challenge: Does CCCc1cc(C)[nH]c(=O)c1CNC(=O)c1cc(-c2ccnc(N3CCN(C)CC3)c2)cc2c1cnn2C(C)C [GSK343] have a reported maximal growth inhibition of at least 60%?
Response given: Criterion met

Challenge: Does CN1CCc2c(c3ccccc3n2Cc2ccc(C(=O)NO)cc2)C1 [TUBASTATIN A] have a reported maximal growth inhibition of at least 60%?
Response given: Criterion not met

Challenge: Does C=CCNC1=C2C[C@@H](C)C[C@H](OC)[C@H](O)[C@@H](C)/C=C(\C)[C@H](OC(N)=O)[C@@H](OC)/C=C\C=C(/C)C(=O)NC(=CC1=O)C2=O [TANESPIMYCIN] have a reported maximal growth inhibition of at least 60%?
Response given: Criterion met

Challenge: Does COC(=O)Nc1nc2cc(C(=O)c3ccccc3)ccc2[nH]1 [MEBENDAZOLE] have a reported maximal growth inhibition of at least 60%?
Response given: Criterion met

Challenge: Does Cc1noc2c1-c1ccccc1C(c1ccc(Cl)cc1)=N[C@H]2CC(N)=O [CPI-0610] have a reported maximal growth inhibition of at least 60%?
Response given: Criterion met

Challenge: Does COCC1(CO)C(=O)C2CCN1CC2 (configuration not stated) [APR-246] have a reported maximal growth inhibition of at least 60%?
Response given: Criterion met

Here is the next item to consider.
Challenge: Does N=C(N)c1ccc(N=NNc2ccc(C(=N)N)cc2)cc1 [BERENIL] have a reported maximal growth inhibition of at least 60%?
Response given: Criterion not met
